# measuredTarget: T1, EsCas13d, nuclease-dead (Eubacterium siraeum, UniProt B0MS50, R295A;H300A;R849A;H854A)
# T1 sequence: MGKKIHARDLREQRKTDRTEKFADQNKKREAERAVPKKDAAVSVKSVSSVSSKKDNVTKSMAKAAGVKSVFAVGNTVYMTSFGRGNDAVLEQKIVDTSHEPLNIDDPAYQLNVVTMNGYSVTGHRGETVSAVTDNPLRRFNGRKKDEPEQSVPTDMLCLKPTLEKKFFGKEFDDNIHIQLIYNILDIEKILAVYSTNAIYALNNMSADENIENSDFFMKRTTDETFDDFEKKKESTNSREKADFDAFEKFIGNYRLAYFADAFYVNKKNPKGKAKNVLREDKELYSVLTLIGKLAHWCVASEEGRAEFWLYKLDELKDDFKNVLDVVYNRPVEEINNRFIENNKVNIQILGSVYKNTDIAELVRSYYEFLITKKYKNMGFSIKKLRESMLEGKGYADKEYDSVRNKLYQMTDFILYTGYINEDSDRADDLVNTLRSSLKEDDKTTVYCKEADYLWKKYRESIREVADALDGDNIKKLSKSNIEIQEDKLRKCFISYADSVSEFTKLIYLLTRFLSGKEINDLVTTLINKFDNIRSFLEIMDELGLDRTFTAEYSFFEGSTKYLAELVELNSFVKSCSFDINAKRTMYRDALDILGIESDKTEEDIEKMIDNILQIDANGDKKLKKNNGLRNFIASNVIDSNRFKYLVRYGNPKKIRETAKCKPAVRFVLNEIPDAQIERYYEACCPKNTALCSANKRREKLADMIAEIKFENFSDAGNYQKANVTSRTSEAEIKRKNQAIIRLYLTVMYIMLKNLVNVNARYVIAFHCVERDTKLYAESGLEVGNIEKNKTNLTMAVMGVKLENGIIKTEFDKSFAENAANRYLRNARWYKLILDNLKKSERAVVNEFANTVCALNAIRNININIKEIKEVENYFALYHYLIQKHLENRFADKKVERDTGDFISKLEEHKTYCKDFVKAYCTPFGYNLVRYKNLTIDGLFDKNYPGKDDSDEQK
# assaySummary: crRNA (strand 1, pre-loaded); Mg2+; 40 mM Tris-HCl pH 7.5, 150 mM NaCl, 6 mM MgCl2, 1 mM DTT, 0.1% Tween-20, 0.2 mg/ml BSA; 25 C; 10 min per concentration, then washed
# runParameters: tags: His6-TwinStrep-SUMO cleaved; N-terminal SNAP kept (SNAP-Surface 488); label: 3' end held by stalled T7 RNA polymerase
So I've got a bunch of binders here, and I need their Kd values.
Numbers only here, please. The scale is nM.

Query :: Look up Kd for this binder: target 1 insC 3' of 15,insC 3' of 11 (mixed) RNA 1: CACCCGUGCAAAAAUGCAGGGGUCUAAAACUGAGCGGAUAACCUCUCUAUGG RNA 2: GGGAAUGGAUCCACAUCUACGAAUUCGUACCAUAGAGCAGGUCUAUCCGCUCACCGAGAUCGGAAGAGCACACGU
Result :: 36.9

Query :: Look up Kd for this binder: target 2 MT 5'PFS CGG 3'PFS CCA (mixed) RNA 1: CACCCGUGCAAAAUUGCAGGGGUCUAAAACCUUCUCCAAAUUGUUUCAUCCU RNA 2: GGGAAUGGAUCCACAUCUACGAAUUCCGGAGGAUGAAACAAUUUGGAGAAGCCAAGAUCGGAAGAGCACACGU
Result :: 37

Query :: Look up Kd for this binder: target 1 G15A,C22U (mixed) RNA 1: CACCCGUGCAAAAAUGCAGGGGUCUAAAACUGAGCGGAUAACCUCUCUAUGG RNA 2: GGGAAUGGAUCCACAUCUACGAAUUCGUAUCAUAGAAAGGUUAUCCGCUCACCGAGAUCGGAAGAGCACACGU
Result :: 17.7
